Kindly state pKi for each of the entries shown.
Target Desc: rCPB2.8 (Leishmania mexicana, UniProt P36400)
Construct: recombinant enzymes (r) lacking the C-terminal region
Sequence (P36400 126-343): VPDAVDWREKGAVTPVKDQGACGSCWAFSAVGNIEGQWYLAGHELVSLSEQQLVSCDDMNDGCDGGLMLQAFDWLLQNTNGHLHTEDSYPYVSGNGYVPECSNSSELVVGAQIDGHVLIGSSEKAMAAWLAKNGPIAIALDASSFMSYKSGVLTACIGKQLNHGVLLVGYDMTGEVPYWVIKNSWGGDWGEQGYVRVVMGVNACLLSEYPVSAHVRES
Experiment: Enzyme kinetics and mechanism of inhibition of rCPB2.8
Assay type: biochemical
Test Context: Ki
Keep in mind that pKi stands for -log10 of concentration in molar terms.

pKi in this record for CN(C)c1ccc(/C=C/C(=O)c2cc(Cl)ccc2O)cc1 [Compound 3c] : 4.00

pKi in this record for COc1ccc(-c2oc3ccccc3c(=O)c2O)cc1 [f12a] : 4.91

pKi in this record for O=c1c(O)c(-c2ccc3c(c2)OCO3)oc2ccccc12 [Compound f12b] : 4.41
